The values you see were collected from patent US11427548B2.

- measurement_target: Androgen Receptor (Homo sapiens, UniProt P10275)
- Construct: endogenous in cells; host or cells: VCaP cells
- Sequence (P10275 whole entry): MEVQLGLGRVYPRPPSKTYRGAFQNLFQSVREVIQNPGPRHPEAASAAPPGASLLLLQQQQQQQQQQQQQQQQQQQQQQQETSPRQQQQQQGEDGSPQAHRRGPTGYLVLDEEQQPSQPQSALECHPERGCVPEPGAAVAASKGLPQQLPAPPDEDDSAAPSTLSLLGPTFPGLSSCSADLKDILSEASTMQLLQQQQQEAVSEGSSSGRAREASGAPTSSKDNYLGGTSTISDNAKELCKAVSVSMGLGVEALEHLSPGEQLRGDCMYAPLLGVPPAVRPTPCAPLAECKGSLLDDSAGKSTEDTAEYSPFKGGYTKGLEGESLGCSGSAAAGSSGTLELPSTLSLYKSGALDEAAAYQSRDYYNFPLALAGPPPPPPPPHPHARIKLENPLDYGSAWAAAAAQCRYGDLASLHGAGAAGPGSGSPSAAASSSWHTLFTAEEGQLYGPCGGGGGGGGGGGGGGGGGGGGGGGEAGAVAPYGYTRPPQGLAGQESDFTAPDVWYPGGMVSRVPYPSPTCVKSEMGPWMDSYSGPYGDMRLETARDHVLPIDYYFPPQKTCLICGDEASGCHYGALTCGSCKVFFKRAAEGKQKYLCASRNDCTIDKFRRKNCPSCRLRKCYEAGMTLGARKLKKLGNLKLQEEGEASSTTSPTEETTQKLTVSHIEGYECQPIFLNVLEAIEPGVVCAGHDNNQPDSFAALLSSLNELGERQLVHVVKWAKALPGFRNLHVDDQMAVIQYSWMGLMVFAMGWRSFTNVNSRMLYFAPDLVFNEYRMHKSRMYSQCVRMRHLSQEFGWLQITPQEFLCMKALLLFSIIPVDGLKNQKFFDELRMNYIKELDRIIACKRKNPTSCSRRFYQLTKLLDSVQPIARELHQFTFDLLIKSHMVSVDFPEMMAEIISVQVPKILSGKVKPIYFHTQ
- experimental_protocol: Androgen Receptor ELISA assay (PathScan AR ELISA) in VCaP cells: AR degradation, Dmax and DC50
- Type: cell-based
- protocol_conditions: VCaP, read-out: VCaP Dmax (%)
Could you please report measured Dmax for the items listed next?

stdin: Requested read-out: Dmax. Entry: Cc1ncsc1-c1ccc(CNC(=O)[C@@H]2C[C@@H](O)CN2C(=O)[C@@H](NC(=O)COC(C)CCCOc2ccc(-c3ccc(N4C(=S)N(c5ccc(C#N)c(C(F)(F)F)c5)C(=O)C4(C)C)cc3)cc2)C(C)(C)C)cc1 (stereo in doubt) [Example 147]
stdout: > 71%

stdin: Item Cc1ncsc1-c1ccc([C@H](C)NC(=O)[C@@H]2C[C@@H](O)CN2C(=O)[C@@H](NC(=O)COC[C@H](O)CCOc2ccc(-c3ccc(N4C(=S)N(c5ccc(C#N)c(C(F)(F)F)c5)C(=O)C4(C)C)cc3)cc2)C(C)(C)C)cc1 [Example 576] has what recorded Dmax?
stdout: > 71%

stdin: Look up Dmax for this molecule: Cc1ncsc1-c1ccc([C@H](C)NC(=O)[C@@H]2C[C@@H](O)CN2C(=O)[C@H](C(C)C)N2Cc3ccc(N4CCN(CCCc5ccc(C(=O)N[C@H]6C(C)(C)[C@H](Oc7ccc(C#N)c(Cl)c7)C6(C)C)cc5)CC4)cc3C2=O)cc1 [Example 778]
stdout: < 25%

stdin: State the recorded Dmax for this entry: CC(C)(C)[C@H](NC(=O)COCCCOCCCCOc1ccc(N2C(=S)N(c3ccc(C#N)c(C(F)(F)F)c3)C(=O)C2(C)C)cc1)C(=O)N1C[C@H](O)C[C@H]1C(=O)NCc1ccc(-c2cnco2)cc1 [Example 34]
stdout: > 71%

stdin: What measured Dmax goes with Cc1ncsc1-c1ccc(CNC(=O)[C@@H]2C[C@@H](O)CN2C(=O)[C@@H](NC(=O)COCCCOCCCCCOc2ccc(N3C(=S)N(c4cnc(C#N)c(C(F)(F)F)c4)C(=O)C3(C)C)cc2)C(C)(C)C)cc1 [Example 2] ?
stdout: 51 to 70%

stdin: Find the recorded Dmax belonging to Cc1ncsc1-c1ccc(CNC(=O)[C@@H]2C[C@@H](O)CN2C(=O)[C@@H](NC(=O)COCCCOCCCCCOc2ccc(N3C(=S)N(c4ccc(C#N)c(C(F)(F)F)c4)C(=O)C3(C)C)cc2)C(C)(C)C)cc1 [Example 1] and report it.
stdout: 51 to 70%

stdin: Entry under review: Cc1ncoc1-c1ccc(CNC(=O)[C@@H]2C[C@@H](O)CN2C(=O)[C@@H](NC(=O)COCCCC(=O)Nc2ccc(-c3ccc(N4C(=S)N(c5ccc(C#N)c(C(F)(F)F)c5)C(=O)C4(C)C)cc3)cc2)C(C)(C)C)cc1 [Example 135] . Reported Dmax?
stdout: 51 to 70%

stdin: Please give the measured Dmax for this molecule: Cc1ncsc1-c1ccc(CNC(=O)[C@@H]2C[C@@H](O)CN2C(=O)[C@@H](NC(=O)COCCCCOc2ccc(-c3ccc(N4C(=S)N(c5ccc(C#N)c(C(F)(F)F)c5)C(=O)C4(C)C)cc3)c(O)c2)C(C)(C)C)cc1 [Example 403]
stdout: 51 to 70%
